Test system: Alopecurus myosuroides (ALOMY)
Test: Herbicidal glasshouse test, pre-emergence, ALOMY
Format: in vivo
Settings: applied at 1000 g/h, evaluated after 13 days
observation type: PRE Application ALOMY, percentage damage (five point scale)

>  <structure>
CCc1ccc(-n2c(=O)c(C(=O)Nc3nnnn3C)nn(C)c2=O)cc1

>  <reading>
5 (5=80-100%)

$$$$
>  <structure>
Cn1nnnc1NC(=O)c1nn(C)c(=O)n(Cc2ccc(F)cc2)c1=O

>  <reading>
5 (5=80-100%)

$$$$
>  <structure>
Cn1nnnc1NC(=O)c1nn(C)c(=O)n(CC2CCOCC2)c1=O

>  <reading>
5 (5=80-100%)

$$$$
>  <structure>
CCCCn1c(=O)c(C(=O)Nc2nncn2C)nn(C)c1=O

>  <reading>
1 (1=0-19%)

$$$$
>  <structure>
Cn1nnnc1NC(=O)c1nn(C)c(=O)n(Cc2ccc(F)cc2Cl)c1=O

>  <reading>
5 (5=80-100%)

$$$$

Give one value of PRE Application ALOMY, percentage damage (five point scale) per listed molecule.
1. CSc1cccc(-n2c(=O)c(C(=O)Nc3nnnn3C)nn(C)c2=O)c1
2. Cn1nnnc1NC(=O)c1nn(C)c(=O)n(Cc2ccc([N+](=O)[O-])cc2)c1=O

["4 (4=60-79%)", "5 (5=80-100%)"]
